These measurements were taken from patent US20240124857A1.

Test: pH profile of enzymes on 1 mM ATP
Type: biochemical
Conditions: 50 mM trisodium citrate/citric acid, 5 mM CaCl2, relative to the highest value
reportedMetric: Relative activity on ATP, pH 5

-- ask Looking for the measured Relative activity on ATP, pH 5 of CRC25084: Acid phosphatase (Class A), accession WP_088823167.1, SEQ ID NO:20 (protein, listed as Acinetobacter apis) ADSNNSFLQLNQVPDSLKIVPAPPAFNSVDFLRDKAAYDQARSLVGTARWQQAAVDADLSDANIGKSFSEAFGVEISPTNTPVTYEILRKLRTDAGGYATKTAKEHYMRMRPFVFFNSHTCTPNDEASLSKNGAYPSGHTTIGWSSALILAEIRPDRQNEILERGYQYGQSRVICGVHWQSDVDAGRITGSAIVARLHADKDFAKTLEDAKREIQKKIK , can you help?
-- reply 0.9
